# reported IC50; entries follow
ASSAY_TARGET: EGFR L858R/T790M (Homo sapiens, UniProt P00533, L858R/T790M)
Construct: purchased Carna Bio
Sequence (P00533 25-1210 T790M/L858R): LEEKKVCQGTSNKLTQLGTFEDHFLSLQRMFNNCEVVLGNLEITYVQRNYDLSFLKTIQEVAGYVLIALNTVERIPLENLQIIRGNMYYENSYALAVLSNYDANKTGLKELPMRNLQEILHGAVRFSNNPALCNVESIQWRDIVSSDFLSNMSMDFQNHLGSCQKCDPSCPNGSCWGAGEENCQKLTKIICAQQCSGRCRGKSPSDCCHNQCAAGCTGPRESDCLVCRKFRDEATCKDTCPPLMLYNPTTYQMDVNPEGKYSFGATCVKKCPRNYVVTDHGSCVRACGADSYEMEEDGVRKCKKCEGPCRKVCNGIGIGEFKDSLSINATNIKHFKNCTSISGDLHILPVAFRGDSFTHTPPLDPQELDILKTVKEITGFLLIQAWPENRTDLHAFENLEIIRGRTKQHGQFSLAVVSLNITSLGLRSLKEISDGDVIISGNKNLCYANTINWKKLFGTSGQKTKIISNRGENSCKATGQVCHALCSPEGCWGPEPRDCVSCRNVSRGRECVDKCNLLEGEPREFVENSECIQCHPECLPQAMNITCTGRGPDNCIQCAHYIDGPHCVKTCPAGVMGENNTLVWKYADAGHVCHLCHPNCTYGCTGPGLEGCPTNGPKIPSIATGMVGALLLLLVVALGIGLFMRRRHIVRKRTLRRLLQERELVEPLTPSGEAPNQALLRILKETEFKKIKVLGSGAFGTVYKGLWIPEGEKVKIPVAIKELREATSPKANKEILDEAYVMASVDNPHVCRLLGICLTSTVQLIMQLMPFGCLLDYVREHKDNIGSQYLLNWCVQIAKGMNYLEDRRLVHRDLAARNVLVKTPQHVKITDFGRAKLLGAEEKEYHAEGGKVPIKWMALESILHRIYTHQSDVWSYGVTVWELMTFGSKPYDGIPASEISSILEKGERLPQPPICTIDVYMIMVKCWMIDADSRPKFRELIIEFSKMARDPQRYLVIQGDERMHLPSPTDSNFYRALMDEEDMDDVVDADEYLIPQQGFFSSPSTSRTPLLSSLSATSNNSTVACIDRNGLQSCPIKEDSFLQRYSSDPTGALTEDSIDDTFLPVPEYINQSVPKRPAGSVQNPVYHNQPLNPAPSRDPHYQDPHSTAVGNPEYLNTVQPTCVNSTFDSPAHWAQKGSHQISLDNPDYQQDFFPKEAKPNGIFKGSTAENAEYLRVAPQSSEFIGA
PROTOCOL_TEXT: Inhibition of EGFR L858R/T790M biochemical enzymatic activity (HTRF)
CONDITION: EGFR L858R/T790M, 1 mM ATP, 1 h at room temperature, read-out: IC50 @L858R-T790M
Protocol: Biological Example 1: Inhibition of EGFR WT and Mutant Biochemical Enzymatic Activity The inhibition potency of compounds against these enzymes was assessed using Homogenous Time Resolved Fluorescence approach (HTRF, CisBio. Cat No. 62TKOPEJ). Inhibitory effects of the compounds were determined by measuring the enzymatic activity of EGFR enzyme phosphorylates 1 μM TK Substrate-biotin in the presence of 1 mM adenosine-5′-triphosphate (ATP) and varying concentrations of the test compound. […]

| COMPOUND | IC50 |
| --- | --- |
| CCN1CCN(c2ccc3nc4n(c3c2)C23CCC(CN(CCOc5c(cnn5C)-c5cc(cc(C)n5)C(=O)N4)C2)C3)CC1 (single isomer, unassigned) [Example B56A] | > 5000 nM |
| Cc1cc2cc(n1)-c1cnn(C)c1OCCN1CC3CCC(C3)(C1)n1c(nc3ccccc31)NC2=O (stereo not drawn) [Example B8B] | 1.3 nM |
| Cc1cc2cc(n1)-c1cnn(C)c1OCCN1CC3CCC(C3)(C1)n1c(nc3ccc(N4CC(N5CCOCC5)C4)cc31)NC2=O (single isomer, unassigned) [Example B48A] | > 5000 nM |
| Cc1cc2cc(n1)-c1cc(=O)n(C)cc1OCCC[C@@H](C)Cn1c(nc3ccccc31)NC2=O | > 5000 nM |
| Cc1cc2cc(n1)-c1cnn(C)c1OCCN1CC3CCC(C3)(C1)n1c(nc3ccc(N4CCC(N5CCOCC5)C4)cc31)NC2=O (single isomer, unassigned) [Example B44A2] | > 5000 nM |
| Cc1cc2cc(n1)-c1cnn(C)c1OCCN1CCOCC(C1)n1c(nc3ccccc31)NC2=O (stereo not drawn) [Example B7B] | 909 nM |

###

ASSAY_TARGET: EGFR[T790M/C797S/d746-750] (Homo sapiens, UniProt P00533, C797S/DEL746-750/T790M)
Construct: purchased Carna Bio
Sequence (P00533 with tags, fused parts or gaps DEL746-750/T790M/C797S limits assumed): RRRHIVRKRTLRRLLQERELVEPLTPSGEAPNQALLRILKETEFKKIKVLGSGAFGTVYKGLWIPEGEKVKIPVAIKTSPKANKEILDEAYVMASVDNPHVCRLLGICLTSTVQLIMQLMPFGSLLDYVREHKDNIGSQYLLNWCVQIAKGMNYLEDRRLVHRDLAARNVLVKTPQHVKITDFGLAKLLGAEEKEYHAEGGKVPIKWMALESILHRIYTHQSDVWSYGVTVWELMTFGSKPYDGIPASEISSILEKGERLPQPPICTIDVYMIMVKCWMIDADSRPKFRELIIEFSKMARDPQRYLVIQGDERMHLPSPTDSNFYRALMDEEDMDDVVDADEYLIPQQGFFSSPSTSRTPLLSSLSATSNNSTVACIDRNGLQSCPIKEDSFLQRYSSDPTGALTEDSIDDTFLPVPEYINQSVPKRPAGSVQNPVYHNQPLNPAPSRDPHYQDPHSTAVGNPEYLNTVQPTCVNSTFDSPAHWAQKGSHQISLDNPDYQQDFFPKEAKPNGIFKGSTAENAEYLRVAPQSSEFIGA
PROTOCOL_TEXT: Inhibition of EGFR[T790M/C797S/d746-750] biochemical enzymatic activity (HTRF)
CONDITION: EGFR[T790M/C797S/d746-750], 1 mM ATP, 1 h at room temperature, read-out: IC50 @T790M - C797S - Del19
MEASURED_QUANTITY: IC50 (nM)

| COMPOUND | MEASURED_QUANTITY | RESULT_UNIT | READOUT_NUMBER |
| --- | --- | --- | --- |
| Cc1cc2cc(n1)-c1cnn(C)c1OCCN1CC3CCC(C3)(C1)n1c(nc3ccc(N4CCC5(CC4)CCN5C)cc31)NC2=O (single isomer, unassigned) [Example B54B] | IC50 | nM | 2.5 |
| Cc1cc2cc(n1)-c1cnn(C)c1OCCN1CC3CCC(C3)(C1)n1c(nc3ccccc31)NC2=O (single isomer, unassigned) [Example B8A] | IC50 | nM | 3990 |
| CCN1CCN(c2ccc3nc4n(c3c2)C23CCC(CN(CCOc5c(cnn5C)-c5cc(cc(C)n5)C(=O)N4)C2)C3)CC1 (single isomer, unassigned) [Example B56A] | IC50 | nM | 360 |
| Cc1cc2cc(n1)-c1cnn(C)c1OCCN1CC3CCC(C3)(C1)n1c(nc3ccc(N4CCOCC4)cc31)NC2=O (single isomer, unassigned) [Example B10A] | IC50 | nM | 2.2 |
| Cc1cc2cc(n1)-c1cnn(C)c1OCCN1CC3CCC(C3)(C1)n1c(nc3ccc(N4CC5CC4CN5C)cc31)NC2=O (single isomer, unassigned) [Example B53A] | IC50 | nM | 1080 |

###

# reported IC50; entries follow
ASSAY_TARGET: EGFR Exon19Del/T790M (Homo sapiens, UniProt P00533, DEL746-750/T790M)
Construct: purchased Carna Bio
Sequence (P00533 with tags, fused parts or gaps DEL746-750/T790M limits assumed): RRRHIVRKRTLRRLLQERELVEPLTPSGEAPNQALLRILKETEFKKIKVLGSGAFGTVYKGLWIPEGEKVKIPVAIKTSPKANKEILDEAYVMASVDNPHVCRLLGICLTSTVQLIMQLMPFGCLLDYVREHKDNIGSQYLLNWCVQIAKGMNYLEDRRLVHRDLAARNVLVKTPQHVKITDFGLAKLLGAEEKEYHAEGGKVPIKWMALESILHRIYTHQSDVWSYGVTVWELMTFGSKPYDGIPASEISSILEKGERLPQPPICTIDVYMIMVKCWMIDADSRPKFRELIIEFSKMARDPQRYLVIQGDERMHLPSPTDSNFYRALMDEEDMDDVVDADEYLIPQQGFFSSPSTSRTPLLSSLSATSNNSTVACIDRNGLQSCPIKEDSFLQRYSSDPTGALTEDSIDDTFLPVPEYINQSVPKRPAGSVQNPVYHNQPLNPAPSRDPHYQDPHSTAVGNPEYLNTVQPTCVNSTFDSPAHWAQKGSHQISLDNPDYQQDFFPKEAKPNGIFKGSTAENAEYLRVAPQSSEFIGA
PROTOCOL_TEXT: Inhibition of EGFR Exon19Del/T790M biochemical enzymatic activity (HTRF)
CONDITION: EGFR Exon19Del/T790M, 1 mM ATP, 1 h at room temperature, read-out: IC50 @Del19-T790M

| COMPOUND | COMPARISON_OPERATOR | IC50 [nM] |
| --- | --- | --- |
| COCCN(C)c1ccc2nc3n(c2c1)C12CCC(CN(CCOc4c(cnn4C)-c4cc(cc(C)n4)C(=O)N3)C1)C2 (single isomer, unassigned) [Example B46B] | = | 7.2 |
| Cc1cc2cc(n1)-c1cnn(C)c1OCCCCCn1c(nc3ccc4c(c31)CN(C1COC1)CC4)NC2=O | = | 33 |
| Cc1cc2cc(n1)-c1cnn(C)c1OCCN1CC3CCC(C3)(C1)n1c(nc3ccc(N4CCN(C5CC5)CC4)cc31)NC2=O (single isomer, unassigned) [Example B55A] | > | 5000 |
| Cc1cc2cc(n1)-c1cnn(C)c1OCCN1CC3CCC(C3)(C1)n1c(nc3ccc(N4CCC5(CCN(C)C5)CC4)cc31)NC2=O (single isomer, unassigned) [Example B52A] | = | 100 |
| Cc1cc2cc(n1)-c1cnn(C)c1OCCN1CC3CCC(C3)(C1)n1c(nc3ccc(N4CCC5(CN(C)C5)C4)cc31)NC2=O (single isomer, unassigned) [Example B50B] | = | 3.6 |
| Cc1cc2cc(n1)-c1cnn(C)c1OCCN1CC3CCC(C3)(C1)n1c(nc3ccccc31)NC2=O (stereo not drawn) [Example B8B] | = | 0.95 |

###

ASSAY_TARGET: EGFR (d746-750 C797S) (Homo sapiens, UniProt P00533, C797S/DEL746-750)
Construct: purchased signalchem
Sequence (P00533 with tags, fused parts or gaps DEL746-750/C797S limits assumed): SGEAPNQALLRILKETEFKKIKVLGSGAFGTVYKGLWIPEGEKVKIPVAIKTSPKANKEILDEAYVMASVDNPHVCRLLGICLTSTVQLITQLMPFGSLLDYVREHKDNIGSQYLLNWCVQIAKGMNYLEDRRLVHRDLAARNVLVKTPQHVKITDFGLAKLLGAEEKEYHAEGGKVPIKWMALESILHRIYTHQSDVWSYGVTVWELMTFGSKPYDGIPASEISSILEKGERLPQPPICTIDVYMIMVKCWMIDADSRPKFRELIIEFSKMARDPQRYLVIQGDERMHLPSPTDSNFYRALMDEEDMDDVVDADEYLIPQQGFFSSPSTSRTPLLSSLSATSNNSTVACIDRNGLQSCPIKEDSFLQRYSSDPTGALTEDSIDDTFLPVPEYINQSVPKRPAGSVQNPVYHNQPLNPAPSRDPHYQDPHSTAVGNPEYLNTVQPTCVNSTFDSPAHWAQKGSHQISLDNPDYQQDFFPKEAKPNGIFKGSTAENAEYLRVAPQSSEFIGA
PROTOCOL_TEXT: Inhibition of EGFR (d746-750 C797S) biochemical enzymatic activity (HTRF)
CONDITION: EGFR Del19-C797S, 1 mM ATP, 1 h, room temperature, read-out: IC50 (nM) @Del19-C797S
# reported IC50; entries follow
MEASURED_QUANTITY: IC50 (nM)

| COMPOUND | RESULT_UNIT | READOUT_NUMBER |
| --- | --- | --- |
| C[C@@H]1CCCOc2c(cnn2C)-c2cc(cn(C)c2=O)C(=O)Nc2nc3ccc(N4CC5(CCCN5C)C4)cc3n2C1 | nM | 3 |
| CN1CCC2(CCN(c3ccc4nc5n(c4c3)C34CCC(CN(CCOc6c(cnn6C)-c6cc(cn(C)c6=O)C(=O)N5)C3)C4)CC2)C1 (single isomer, unassigned) [Example A82A] | nM | 226 |
| C[C@@H]1CCCOc2c(cnn2C)-c2cc(cn(C)c2=O)C(=O)Nc2nc3ccc(N4CCC(N5CCOCC5)C4)cc3n2C1 (some centres unmarked) | nM | 14 |
| CN1CC2(C1)CN(c1ccc3nc4n(c3c1)C13CCC(CN(CCOc5c(cnn5C)-c5cc(cn(C)c5=O)C(=O)N4)C1)C3)C2 (single isomer, unassigned) [Example A92B] | nM | 1 |
| CN1CCC12CCN(c1ccc3nc4n(c3c1)C13CCC(CN(CCOc5c(cnn5C)-c5cc(cn(C)c5=O)C(=O)N4)C1)C3)CC2 (single isomer, unassigned) [Example A67A] | nM | 1080 |
| C[C@@H]1CCCOc2c(cnn2C)-c2cc(cn(C)c2=O)C(=O)Nc2nc3ccc(N4CCN(C)CC4)cc3n2C1 | nM | 1 |
| Cn1ncc2c1OCCN1CC3CCC(C3)(C1)n1c(nc3ccc(N4CCC(N5CC(F)C5)C4)cc31)NC(=O)c1cc-2c(=O)n(C)c1 (single isomer, unassigned) [Example A94B] | nM | 6.1 |
| CN1CC2CC1CN2c1ccc2nc3n(c2c1)C12CCC(CN(CCOc4c(cnn4C)-c4cc(cn(C)c4=O)C(=O)N3)C1)C2 (single isomer, unassigned) [Example A105B] | nM | 1 |
| CCN1CCN(c2ccc3nc4n(c3c2)C23CCC(CN(CCOc5c(cnn5C)-c5cc(cn(C)c5=O)C(=O)N4)C2)C3)CC1 (single isomer, unassigned) [Example A107A] | nM | 245 |
| CN(C)C1CCN(c2ccc3nc4n(c3c2)C23CCC(CN(CCOc5c(cnn5C)-c5cc(cn(C)c5=O)C(=O)N4)C2)C3)CC1 (single isomer, unassigned) [Example A64A] | nM | 1920 |
| CN1CCC2CN(c3ccc4nc5n(c4c3)C34CCC(CN(CCOc6c(cnn6C)-c6cc(cn(C)c6=O)C(=O)N5)C3)C4)CC21 (single isomer, unassigned) [Example A79B] | nM | 5 |
